Give measured pIC50 for each item. Keep answers brief.
system: human PBMCs; test: cells; settings: PBMC, read-out: CD3/CD28-induced IL-2 IC50
Counter-ions that a name gives are not always drawn.
Give bare numbers, as −log10 of the molar value.

Sample records with pIC50:
COCC(C)NCc1ccc2c(c1)nc(NC(=O)c1ccc(-c3cnco3)s1)n2C[C@H]1CCCN1C(=O)C(C#N)=CC(C)(C)C (some centres unmarked) [Example 7] :: 6.96
CC(C)(C)C=C(C#N)C(=O)N1CCC[C@@H]1Cn1c(NC(=O)c2ccc(-c3cnco3)s2)nc2cc(CO)ccc21 [Example 1] :: 7.15
CC(C)(C)C=C(C#N)C(=O)N1CCC[C@@H]1Cn1c(NC(=O)c2ccc(-c3cnco3)s2)nc2cc(CNCC3CC3)ccc21 [Example 2, formate] :: 7.09
C=CC(=O)N1CCC[C@@H]1Cn1c(NC(=O)c2ccc(-c3cnco3)s2)nc2cc(CN[C@@H](C)CO)ccc21 [Example 12] :: 8.40

Now turn to the next compound.
Reported pIC50 for C=CC(=O)N1CCC[C@@H]1Cn1c(NC(=O)c2ccc(-c3cnco3)s2)nc2cc(CNCC3CC3)ccc21 [Example 9] : what is it?
8.40
